Taken from PubChem BioAssay (NCATS).

Assay: qHTS of pediatric cancer cell lines to identify multiple opportunities for drug repurposing: Primary screen for SK-N-MC cells (AID 1347093)
Conditions: SK-N-MC viability, CellTiter-Glo luminescence, 48 h; series mostly up to 46 µM
Results filed as inconclusive are left out. Activity calls are given as the source filed them. The call rests on the fitted dose curve; in most records, active means well fitted cell-killing curve with a large enough effect; inconclusive means small, poorly fitted or top-dose-only effect; inactive means no such curve, though single readings can be large or run the other way. Peptide text beside a SMILES is read from it.
Respond only with the outcome that fits, drawn from active, inactive

Observe how each entry below is paired with its result.
>>> group_label("COC(=O)N[C@H](C(=O)N[C@@H](Cc1ccccc1)[C@@H](O)CN(Cc1ccc(-c2ccccn2)cc1)NC(=O)[C@@H](NC(=O)OC)C(C)(C)C)C(C)(C)C")
"inactive"
>>> group_label("COC(=O)[C@H](Cc1ccccc1)NC(=O)[C@@H](N)CC(=O)O (H-Asp-Phe-OMe)")
"inactive"
>>> group_label("CC1(C)NC(=O)N(c2ccc([N+](=O)[O-])c(C(F)(F)F)c2)C1=O")
"inactive"

Query: Tell me the assay call for `CN1CCC(=C2c3ccccc3CCc3sccc32)CC1` please.
Result: active

Query: Try this compound next: CC1=C(C)C(=O)C(C(CCCCCC(=O)O)c2ccccc2)=C(C)C1=O (stereo not drawn)
Result: inactive
